# Radiant efficiency Targeting:M13Ke per entry
tested on: caerulein-induced CP mice (inflamed pancreas) versus healthy mice; assay: In vivo validation of individual phage clones: ex vivo IVIS fluorescence of organs after co-injection of targeting phage (VT680) and wild type M13Ke phage (VT750); parameters: species or system mouse (C57BL/6J); settings: healthy mouse, pancreas
API doc: respond with a numeric literal and nothing else, no unit.

Use these answered entries as a reference point.
>>> df
                                  substance  recorded_result
0  HSGLNKQ (displayed on phage) [7-mer peptide, candidate phage clone selected by motif clustering analysis]             9.93
1  SLPLGPM (displayed on phage) [7-mer peptide, candidate phage clone from Groups 2 and 3]             5.00
2              SLTNSSF (displayed on phage)             1.62
3  HPYSPLR [7-mer peptide, candidate phage clone from Groups 2 and 3]             4.16
4              KTYVPTT (displayed on phage)             8.74

Look at this substance and give its reported Radiant efficiency Targeting:M13Ke. MNSIAIP (displayed on phage)
5.04

Query MDLSLKP (displayed on phage) next
5.79

Query SNSQDLH (displayed on phage) next
2.07

Query SANITNL (displayed on phage) [7-mer peptide, candidate phage clone selected by replicability between libraries] next
4.27

====

biological target: CD31 (mouse); assay: IF colocalization (JACoP) of VT680 phage with marker, CP mouse pancreas sections
mean Manders' correlation coefficient (MCC), fraction of phage overlapping cell marker under 0.2 gets Met, anything at or over 0.2 gets Not met.

>>> print(df.to_string())
                                  substance  tested_target  assigned_label
0  HPYSPLR (SEQ ID NO: 11) phage clone (peptide)   CD31 (mouse)         Not met
1  MNSIAIP (SEQ ID NO: 20) phage clone (peptide)   CD31 (mouse)         Not met

Given SNSQDLH (SEQ ID NO: 28) phage clone (peptide) , is recorded mean Manders' correlation coefficient (MCC), fraction of phage overlapping cell marker strictly lower than 0.2?
Met

Query SLPLGPM (SEQ ID NO: 26) phage clone (peptide) next
Not met

====

target: collagen IIIa (mouse) (UniProt P08121); assay: IF colocalization (JACoP) of VT680 phage with marker, CP mouse pancreas sections
READOUT NAME: mean Manders' correlation coefficient (MCC), fraction of phage overlapping cell marker

>>> df
                                  substance  recorded_result
0  SNSQDLH (SEQ ID NO: 28) phage clone (peptide)             0.33
1  MNSIAIP (SEQ ID NO: 20) phage clone (peptide)             0.34
2  SLPLGPM (SEQ ID NO: 26) phage clone (peptide)             0.23
3  KTYVPTT (SEQ ID NO: 14) phage clone (peptide)             0.23

Please look at the following substance next.
Look at this substance and give its reported mean Manders' correlation coefficient (MCC), fraction of phage overlapping cell marker. HPYSPLR (SEQ ID NO: 11) phage clone (peptide)
0.27

====

biological target: cytokeratin 7 (CK-7) (mouse) (UniProt Q9DCV7); assay: IF colocalization (JACoP) of VT680 phage with marker, CP mouse pancreas sections
READOUT NAME: mean Manders' correlation coefficient (MCC), fraction of phage overlapping cell marker
API doc: respond with a numeric literal and nothing else, no unit.

Use these answered entries as a reference point.
In [3]: df
Out[3]:
                                  substance  recorded_result
0  SNSQDLH (SEQ ID NO: 28) phage clone (peptide)             0.14
1  KTYVPTT (SEQ ID NO: 14) phage clone (peptide)             0.06
2  HPYSPLR (SEQ ID NO: 11) phage clone (peptide)             0.08
3  MNSIAIP (SEQ ID NO: 20) phage clone (peptide)             0.05

Look at this substance and give its reported mean Manders' correlation coefficient (MCC), fraction of phage overlapping cell marker. SLPLGPM (SEQ ID NO: 26) phage clone (peptide)
0.06

Query MDLSLKP (SEQ ID NO: 19) phage clone (peptide) next
0.06

====

system: caerulein-induced CP mice (inflamed pancreas) versus healthy mice; test: In vivo validation of individual phage clones: ex vivo IVIS fluorescence of organs after co-injection of targeting phage (VT680) and wild type M13Ke phage (VT750); parameters: species or system mouse (C57BL/6J); details: CP mouse, liver
Cut-off 0.7 on Radiant efficiency Targeting:M13Ke, inclusive. At or above means T; below means F.

Reference set (7 entries):
>>> print(df.to_string())
                                  substance  assigned_label
0              SNSQDLH (displayed on phage)               T
1              MNSIAIP (displayed on phage)               F
2  HSGLNKQ (displayed on phage) [7-mer peptide, candidate phage clone selected by motif clustering analysis]               F
3              KTYVPTT (displayed on phage)               F
4  HPYSPLR [7-mer peptide, candidate phage clone from Groups 2 and 3]               F
5              SLTNSSF (displayed on phage)               T
6  SANITNL (displayed on phage) [7-mer peptide, candidate phage clone selected by replicability between libraries]               T

Would you kindly look at the next entry?
Say whether SLPLGPM (displayed on phage) [7-mer peptide, candidate phage clone from Groups 2 and 3] shows Radiant efficiency Targeting:M13Ke of 0.7 or more.
F

====

biological target: carboxypeptidase A1 (CPA1) (mouse); experiment: IF colocalization (JACoP) of VT680 phage with marker, CP mouse pancreas sections
READOUT NAME: mean Manders' correlation coefficient (MCC), fraction of phage overlapping cell marker
API doc: respond with a numeric literal and nothing else, no unit.

Use these answered entries as a reference point.
>>> print(df.to_string())
                                  substance                       tested_target  recorded_result
0  SNSQDLH (SEQ ID NO: 28) phage clone (peptide)  carboxypeptidase A1 (CPA1) (mouse)             0.23
1  MNSIAIP (SEQ ID NO: 20) phage clone (peptide)  carboxypeptidase A1 (CPA1) (mouse)             0.63
2  KTYVPTT (SEQ ID NO: 14) phage clone (peptide)  carboxypeptidase A1 (CPA1) (mouse)             0.26
3  HPYSPLR (SEQ ID NO: 11) phage clone (peptide)  carboxypeptidase A1 (CPA1) (mouse)             0.25
4  SLPLGPM (SEQ ID NO: 26) phage clone (peptide)  carboxypeptidase A1 (CPA1) (mouse)             0.35

Look at this substance and give its reported mean Manders' correlation coefficient (MCC), fraction of phage overlapping cell marker. MDLSLKP (SEQ ID NO: 19) phage clone (peptide)
0.31
